Target: Fibroblast growth factor 2 (Homo sapiens)
Experiment: FGF2 binders on small-molecule microarrays, primary screen, biochemical, small-molecule microarray, 635/667 nm fluorescence (AID 1133)
Settings: small-molecule microarray binding, FGF2, fluorescence 635/667; higher = more signal
Measurement Name: composite z-score
Answer field: number only, no words.

Example entries begin here.
{"columns": ["Molecule", "Tested Target", "composite z-score"],
 "data": [
  ["COC(=O)[C@@]1(Cc2ccccc2)[C@H]2c3cc(C(=O)N(C)C)n(CCN4CNCC4=O)c3C[C@H]2CN1C(=O)c1ccccc1", "Fibroblast growth factor 2 (Homo sapiens)", -0.8],
  ["C=CCC(OC(C)=O)[C@@H]1[C@@H](N(Cc2cc3ccccc3o2)C(=O)Cc2ccc(F)cc2)c2cc(OCCCO)ccc2N1C(=O)c1ccc2ccccc2c1 (some centres undefined)", "Fibroblast growth factor 2 (Homo sapiens)", -0.143],
  ["COCCOC(=O)N1C(=O)[C@@]2(c3cc(C#Cc4ccc(OC)cc4)ccc31)[C@H](C(=O)Nc1nc3ccccc3s1)[C@H]1C(=O)O[C@H](c3ccccc3)[C@H](c3ccccc3)N1[C@@H]2c1ccc(OCCO)cc1", "Fibroblast growth factor 2 (Homo sapiens)", 1.28]
]}

# composite z-score lookup, item `Cc1ccc(S[C@]2(C(=O)NCC(F)(F)F)CC(=O)N(C3CCCCC3)[C@@H]2c2ccc(CO)cc2I)cc1` 0.621
